assay: resazurin metabolic signal in A549 cells – cell-based, resazurin fluorescence, 24 h, PK04 Diversity Set, profiling panel (AID 1171); settings: A549 viability, higher = more signal, called active from +8 up or from −8 down; note: test concentration not given here
Let's look at some compounds and their measured z-score.
Could you respond with only the numeric value?

# count of solved cases: 5
# compound, z-score
rows = [
    ("C=CCC(OC(C)=O)[C@@H]1[C@@H](N(Cc2ccc(-c3cccc(C(F)(F)F)c3)o2)C(=O)c2ccc(-c3ccccc3)cc2)c2cc(OCCCO)ccc2N1C(=O)c1ccc2ccccc2c1 (stereo partly specified)", 0.919),
    ("[N-]=[N+]=Nc1ccccc1[C@@H]1OC(c2ccc(OCCCO)cc2)=N[C@]1(CCS(=O)(=O)c1ccccc1)C(=O)NCC(O)CO (stereo partly specified)", 0.575),
    ("CN1C(=O)C2C(C3CC3)C=C3CN(Cc4cccc(Cl)c4)[C@@H]([C@@H](O)Cc4ccccc4)C3C2C1=O (stereo partly specified)", 0.43),
    ("CC1CC/C=C\\[C@H]2OC34C=CCN(C(C)(C)C)C(=O)[C@H]3N(CCCO)C(=O)[C@@H]4C2C(=O)O1 (stereo partly specified)", -0.0125),
    ("CC(C)=CCCC=C(C)C(O)C1C=CC2C(=O)N(c3ccccc3)C(=O)C2N1Nc1ccc(C#N)cc1 (stereo unspecified)", -1.18),
]

Proceeding to the next compound to report its z-score.
IN: Please give the measured z-score for this compound: `C=C(COC)/C(=C/C[C@H](OC(C)=O)c1ccccc1OCCO)c1cc(C(=O)OC)ccc1OC`
OUT: -0.0553
